# assayName: Cytotoxicity determination in HepG2.2.15 cells (CCK-8 cell viability)
# Type: cell-based
# statedConditions: human, 6 days treatment, CCK-8 assay, highest concentration 100 uM
# 1.0 = CC50 at 6 days below 50 µM (exclusive); 0.0 = CC50 at 6 days at/above 50 µM

{"compound": "CCOC(=O)C1=C(CN2CCC3(F)C(=O)N(CC(C)(C)C(=O)O)CC23)NC(c2nccs2)=N[C@H]1c1cccc(F)c1C (stereo in doubt)", "assignedCategory": 0.0}
{"compound": "CCOC(=O)C1=C(CN2CC(F)(F)[C@@H]3[C@H]2CN(C(=O)[C@H]2CC2(F)F)N3CCC(C)(C)C(=O)O)NC(c2nccs2)=N[C@H]1c1cccc(F)c1C (single isomer, unassigned) [Compound 72A]", "assignedCategory": 1.0}
{"compound": "CCCOC(=O)C1=C(CN2CC(F)(F)[C@H]3[C@@H]2CCN3CCC(C)(C)C(=O)O)NC(c2nccs2)=N[C@H]1c1cccc(F)c1C (single isomer, unassigned)", "assignedCategory": 1.0}
{"compound": "COC(=O)C1=C(CN2CC(F)(F)[C@H]3[C@@H]2CCN3C[C@@H](C)C(=O)O)NC(c2nccs2)=N[C@H]1c1cccc(F)c1Cl (single isomer, unassigned) [Compound 132A]", "assignedCategory": 1.0}

----------
# assayName: Cytotoxicity determination in HepG2.2.15 cells (CCK-8 cell viability)
# Assay type: cell-based
# statedConditions: human, 6 days treatment, CCK-8 assay, highest concentration 100 uM
readoutName: CC50 at 6 days (µM)

{"compound": "CCOC(=O)C1=C(CN2CC(F)(F)[C@@H]3CN(C[C@H](CC)C(=O)O)C(=O)[C@@H]32)NC(c2nccs2)=N[C@H]1c1cccc(F)c1C (single isomer, unassigned) [Compound 183B]", "unitsText": "µM", "testResult": 50.2}
{"compound": "CCOC(=O)C1=C(CN2CC(F)(F)[C@H]3CN(C[C@@H](C)C(=O)O)C[C@H]32)NC(c2nccs2)=N[C@H]1c1cccc(F)c1C (single isomer, unassigned) [Compound 15E]", "unitsText": "µM", "testResult": 41.7}
{"compound": "CCOC(=O)C1=C(CN2CC(F)(F)[C@@H]3CN(CC(C)(C)C(=O)O)C[C@@H]32)NC(c2nccs2)=N[C@H]1c1cccc(F)c1Cl (single isomer, unassigned) [Compound 22B]", "unitsText": "µM", "testResult": 70.4}
{"compound": "COC(=O)C1=C(CN2CC(F)(F)[C@H]3[C@@H]2CCN3C[C@@H](C)C(=O)O)NC(c2nccs2)=N[C@H]1c1ccc(F)cc1Cl (single isomer, unassigned) [Compound 133A]", "unitsText": "µM", "testResult": 41.7}
{"compound": "CCOC(=O)C1=C(CN2CC(F)(F)[C@H]3[C@@H]2CCN3[C@H]2C[C@@H](CC(=O)O)C2)NC(c2nccs2)=N[C@H]1c1cccc(F)c1C (single isomer, unassigned) [Compound 123A]", "unitsText": "µM", "testResult": 18.6}

----------
# System: HBV
# assayName: Anti-HBV activity in HepG2.2.15 cells (HBV DNA in culture medium by qPCR)
# Format: cell-based
# statedConditions: Hepatitis B virus, HepG2.2.15, 144 h, HepG2.2.15 cells, 6 days treatment, HBV DNA in culture medium quantified by real-time PCR; read-out: EC50
# Procedure: Example 2: Anti-Viral Assay in HepG2.2.15 Cells […] The change of HBV DNA level induced by the compounds was assessed by quantitative real-time polymerase chain reaction (qPCR). Briefly, the HBV DNA in the culture medium was extracted using QIAamp 96 DNA Blood Kit according to the manual and then quantified by real-time PCR assay using the primers and probe in the table 2 below. 2) DATA Analysis EC50 and CC50 values are calculated by the GRAPTIPAD PRISM software.
Readings of log10(EC50) for the listed compounds
readoutName: log10(EC50) (log10 of the value in nM)

{"compound": "CCOC(=O)C1=C(CN2CC(F)(F)[C@H]3[C@@H]2CCN3CCC(C)(C)C(=O)O)NC(c2nccs2)=N[C@@H]1c1ccc(F)c(F)c1F (single isomer, unassigned) [Compound 140]", "log10(EC50)": 0.85}
{"compound": "CCOC(=O)C1=C(CN2CC(F)(F)C3C2CCN3NCC(C)(C)C(=O)O)NC(c2nccs2)=N[C@H]1c1cccc(F)c1C (some centres unmarked) [Compound 27]", "log10(EC50)": 1.62}
{"compound": "CCOC(=O)C1=C(CN2CC(F)(F)[C@@H]3[C@H]2CN(C)N3CC(C)(C)C(=O)O)NC(c2nccs2)=N[C@@H]1c1ccc(F)nc1C (single isomer, unassigned) [Compound 97]", "log10(EC50)": 1.89}
{"compound": "CCOC(=O)C1=C(CN2CC(F)(F)C3CC(C(=O)O)CC32)NC(c2nccs2)=N[C@H]1c1cccc(F)c1C (some centres unmarked) [Compound 2]", "log10(EC50)": 0.61}
{"compound": "CCOC(=O)C1=C(CN2CC(F)(F)[C@@H]3CN(C(=O)OC(C)(C)C(=O)O)C[C@@H]32)NC(c2nccs2)=N[C@H]1c1cccc(F)c1C (single isomer, unassigned) [Compound 60]", "log10(EC50)": 1.70}
